# System: A549/ATCC NSCLC
# method_summary: NCI-60 one-dose screen, 48 h (100 = growth as untreated, 0 = no growth, -100 = all killed)
# condition: 10 µM unless noted
About 83,000 compounds went through this panel and 20% of them were active in at least one assay; those are over-represented in the sample as a whole.
Cut-off 30% on growth: below means Condition met, at or above means Condition not met.

Study these solved cases before continuing.
| compound | discrete_label |
| --- | --- |
| COc1ccc(/C=N/NC(=O)c2cnn3c2NC(c2ccccc2)C3)cc1OC (configuration not stated) | Condition not met |
| C/C(=N\NC(=O)CSc1nc2ccccc2c(=O)n1CCc1ccc(S(N)(=O)=O)cc1)c1ccccn1 | Condition met |
| Fc1ccc2c(-c3cncn3CCc3ccccc3)c[nH]c2c1 | Condition not met |
| N#CC1=C(N)Oc2c(ccc3ccccc23)C1c1ccccc1Cl (configuration not stated) | Condition met |
| COc1ccc(-c2cnc3c(-c4cccc5ncccc45)cnn3c2)cc1 | Condition met |
| Oc1ccc(C2c3ccccc3Oc3ccccc32)c2cccnc12 | Condition met |
| CCCOc1ccc(/C=N/Nc2cc(C)nc3ccc(Br)cc23)cc1 | Condition not met |
| O=c1ccc(-c2nc(N3CCOCC3)c3ccccc3n2)c[nH]1 | Condition not met |
| COc1ccc(-c2[nH][nH]c(=O)c2-c2nc3ccccc3s2)cc1 | Condition not met |
| CCOC(=O)c1cc(C(=O)c2ccc(OC)cc2)n2ccc(/C=C/c3cc[n+](CC(=O)c4ccc(OC)cc4)cc3)cc12 | Condition not met |

Field: below-cutoff. Rule: recorded growth strictly less than 30%. Subject: `COc1cc2c(=O)n(CCCN(C)C)c3c4cc5c(cc4ccc3c2cc1OC)OCO5`
Condition not met

Field: below-cutoff. Rule: recorded growth strictly less than 30%. Subject: `C=C(CBr)[C@@H]1CC[C@]2(COC(C)=O)CC[C@]3(C)[C@H](CC[C@@H]4[C@@]5(C)CCCNC(C)(C)[C@@H]5CC[C@]43C)[C@@H]12`
Condition not met

---

# System: OVCAR-3 ovarian
# method_summary: NCI-60 one-dose screen, 48 h (100 = growth as untreated, 0 = no growth, -100 = all killed)
# condition: 10 µM unless noted
About 83,000 compounds went through this panel and 20% of them were active in at least one assay; those are over-represented in the sample as a whole.
assay_metric: growth (%)
Numeric answer only, unit % assumed.

| compound | unit_tag | assay_value |
| --- | --- | --- |
| O=C(NO)c1ccc(-n2nc(-c3ccccc3)c3ccccc32)cc1 | % | 1 |

compound `COc1ccc(-c2cnc3c(-c4cccc5ncccc45)cnn3c2)cc1` , growth observed: 57.7

compound `CCCCCCCCCCCCCCCC[N+]1(C)CCN(SN2CC[N+](C)(CCCCCCCCCCCCCCCC)CC2)CC1` , growth observed: 59.7

---

# System: LOX IMVI melanoma
# method_summary: NCI-60 one-dose screen, 48 h
# condition: 10 µM unless noted
The panel holds about 83,000 compounds, 20% with a hit somewhere; the sample as a whole holds those more often. Calls of active or inactive are those of the source. How the source made its calls: active means growth percent below 10; inactive means the rest.
Use one of these outcomes when replying: 1.0 (active), 0.0 (inactive)

Study these solved cases before continuing.
| compound | tested_on | discrete_label |
| --- | --- | --- |
| Nc1nc(Nc2ccccc2SSc2ccccc2Nc2nc(N)nc(-c3ccc(C(F)(F)F)cc3)n2)nc(-c2ccc(C(F)(F)F)cc2)n1 | LOX IMVI melanoma | 0.0 |
| CN1CCN(c2ccc(NC3=C(Cl)C(=O)c4ncccc4C3=O)cc2C(F)(F)F)CC1 | LOX IMVI melanoma | 1.0 |
| C=CCn1c(-c2ccc(-c3nc4ccc(C)cc4[nH]3)cc2)n[nH]c1=S | LOX IMVI melanoma | 0.0 |
| COc1c(Cl)c2c(c(OC)c1OC)-c1ccc(SC)c(=O)cc1[C@@H](NC(=O)OCC(F)(F)F)CC2 | LOX IMVI melanoma | 0.0 |
| NS(=O)(=O)c1ccc(CCn2c(SCC(=O)c3ccc(Cl)cc3)nc3ccccc3c2=O)cc1 | LOX IMVI melanoma | 0.0 |

So what was the verdict on `COc1ccc(/C=C2\Oc3cc(OCCCN4CCCCC4)ccc3C2=O)cc1OC` in this test?
0.0

---

# Test system: MDA-MB-435 melanoma
# method_summary: NCI-60 one-dose screen, 48 h
# condition: 10 µM unless noted
The panel holds about 83,000 compounds, 20% with a hit somewhere; the sample as a whole holds those more often. Activity calls are given as the source filed them. How the source made its calls: active means growth percent below 10; inactive means the rest.
Use one of these outcomes when replying: yes for active, no for inactive

| compound | discrete_label |
| --- | --- |
| O=C(Cn1c[n+](CC(=O)c2ccc(-c3ccccc3)cc2)c2ccccc21)Nc1cccc2cccnc12 | yes |

So what was the verdict on O=C(c1ccccc1)N1N=C(c2ccc(-n3ccc(C(F)(F)F)n3)c(F)c2)CC1c1ccc[nH]1 (stereo unspecified) in this test?
no

So what was the verdict on `COc1cc(/C=C\c2cc(OC)c(OC)c(OC)c2)cc(N)c1OC` in this test?
yes

So what was the verdict on `COc1ccc2nc(-c3ccc(-c4noc(-c5cc(OC)c(OC)c(OC)c5)n4)cc3)[nH]c2c1` in this test?
no

---

# Test system: ACHN renal
# method_summary: NCI-60 one-dose screen, 48 h (100 = growth as untreated, 0 = no growth, -100 = all killed)
# condition: 10 µM unless noted
The panel holds about 83,000 compounds, 20% with a hit somewhere; the sample as a whole holds those more often. The source made the active and inactive calls. The calls were made as follows: active = growth percent below 10; inactive = the rest.
Overview of reported growth across a group of molecules:

Record excerpt, results attached:
| molecule | tested_on | assay_value |
| --- | --- | --- |
| O=C(NO)c1ccc(-n2nc(-c3ccccc3)c3ccccc32)cc1 | ACHN renal | 26.9% (inactive) |
| Cc1ccc(NC(C(=O)c2ccccc2)c2ccccc2)cc1 (stereo not given) | ACHN renal | 85% (inactive) |
| CC(Oc1ccc(C(=O)O)cc1C(F)(F)F)c1ccc(Oc2ccccc2)cn1 (stereo not given) | ACHN renal | 104% (inactive) |
| N#CC1=C(N)Oc2c(ccc3ccccc23)C1c1ccccc1Cl (stereo not given) | ACHN renal | 34% (inactive) |

Below: the item to evaluate.
molecule `[O-][n+]1c(Cl)cc(Cl)c2ccccc21` , growth observed: 99.5% (inactive)

---

# Test system: MDA-MB-231 breast
# method_summary: NCI-60 one-dose screen, 48 h
# condition: 10 µM unless noted
About 83,000 compounds went through this panel and 20% of them were active in at least one assay; those are over-represented in the sample as a whole. Active and inactive are the calls of the source. How the source made its calls: active means growth percent below 10; inactive means the rest.
Use one of these outcomes when replying: True (active), False (inactive)

Study these solved cases before continuing.
| compound | discrete_label |
| --- | --- |
| CCOC(=O)CSc1nc2ccccc2c(=O)n1Cc1ccc(S(N)(=O)=O)cc1 | False |
| CC(=O)Nc1ccc(-n2cnc3cc(-c4ccc(OCCN5CCCCC5)cc4)ccc32)cc1 | False |

So what was the verdict on `C#CCNC(=O)[C@H](Cc1ccccc1)NC(=O)[C@]12CC[C@@H](C(=C)C)[C@@H]1[C@H]1CC[C@@H]3[C@@]4(C)CCC(=O)C(C)(C)[C@@H]4CC[C@@]3(C)[C@]1(C)CC2` in this test?
False

So what was the verdict on `O=S(=O)(NCCNc1nccc(-c2c(-c3cccc(F)c3)nc3sccn23)n1)c1ccc(Br)cc1` in this test?
False

So what was the verdict on `C#CCNC(=O)c1cccc2c1cc(C)n2-c1nc2c(c(NCc3ccccc3)n1)CCCC2` in this test?
True

So what was the verdict on `COc1ccc(/C=C2\Oc3cc(OCCCN4CCCCC4)ccc3C2=O)cc1OC` in this test?
False

So what was the verdict on `COc1ccc(C(=O)c2nc3ccccc3n2CC(=O)c2ccc(Cl)cc2)cc1` in this test?
False

So what was the verdict on `O=C1Nc2cc(-c3ccc(NS(=O)(=O)c4ccccc4)cc3)ccc2/C1=C/c1ccc[nH]1` in this test?
False

So what was the verdict on `O=C(Nc1ccc(F)cc1)Nc1ccc(NC(=O)c2cc(Cl)nc3ccccc23)cc1` in this test?
False

So what was the verdict on `COc1cc(OC)cc(C(=O)C[n+]2cccc3cc[nH]c32)c1` in this test?
False

So what was the verdict on `[O-][n+]1c(Cl)cc(Cl)c2ccccc21` in this test?
False

---

# System: PC-3 prostate
# method_summary: NCI-60 one-dose screen, 48 h (100 = growth as untreated, 0 = no growth, -100 = all killed)
# condition: 10 µM unless noted
The panel holds about 83,000 compounds, 20% with a hit somewhere; the sample as a whole holds those more often.
Cut-off 70% on growth: below means Met, at or above means Not met.

Study these solved cases before continuing.
| molecule | discrete_label |
| --- | --- |
| COc1ccc(C(=O)C2C(C#N)C(C#N)C3c4ccccc4C=CN23)cc1 (stereo not given) | Not met |
| Cn1cc(-c2csc(-c3c[nH]c4ccccc34)n2)c2ccnc(Cl)c21 | Met |
| COc1cc(C(=O)Nc2cc3c(cc2Oc2cc(C)cc(C)c2)C(=O)N(C)[C@@H](CC(=O)N(C)O)C(=O)N3)c(Br)c(OC)c1OC | Met |
| Cc1c(C)c([N+](=O)[O-])c(C)c([N+](=O)[O-])c1C | Not met |
| N=C(N)c1ccc(OCCCCCCCCCCOc2ccc(C(=N)N)cc2)cc1 | Met |
| C=CCN1C(=O)/C(=C/C(=O)OC)S/C1=N\NC(=O)c1cc2ccc1/C=C\c1ccc(cc1)/C=C\2 | Met |
| Brc1ccc(Nc2csc(-c3ccccn3)n2)cc1 | Not met |
| Oc1cccc(CCc2ccc(Oc3cc(CCc4cccc(O)c4)cc(O)c3O)cc2)c1 | Met |

Now for a further molecule.
Field: below-cutoff. Rule: recorded growth strictly less than 70%. Subject: `CCN(Cc1ccccc1)c1ccc(C=O)cc1`
Not met

Hello, the source for this data is PubChem BioAssay (NCI), in case you need it.
